All values here come from patent US9403833B2.

system.tested: Smurf-1 (Homo sapiens (Human))
Sequence (Q9HCE7 whole entry): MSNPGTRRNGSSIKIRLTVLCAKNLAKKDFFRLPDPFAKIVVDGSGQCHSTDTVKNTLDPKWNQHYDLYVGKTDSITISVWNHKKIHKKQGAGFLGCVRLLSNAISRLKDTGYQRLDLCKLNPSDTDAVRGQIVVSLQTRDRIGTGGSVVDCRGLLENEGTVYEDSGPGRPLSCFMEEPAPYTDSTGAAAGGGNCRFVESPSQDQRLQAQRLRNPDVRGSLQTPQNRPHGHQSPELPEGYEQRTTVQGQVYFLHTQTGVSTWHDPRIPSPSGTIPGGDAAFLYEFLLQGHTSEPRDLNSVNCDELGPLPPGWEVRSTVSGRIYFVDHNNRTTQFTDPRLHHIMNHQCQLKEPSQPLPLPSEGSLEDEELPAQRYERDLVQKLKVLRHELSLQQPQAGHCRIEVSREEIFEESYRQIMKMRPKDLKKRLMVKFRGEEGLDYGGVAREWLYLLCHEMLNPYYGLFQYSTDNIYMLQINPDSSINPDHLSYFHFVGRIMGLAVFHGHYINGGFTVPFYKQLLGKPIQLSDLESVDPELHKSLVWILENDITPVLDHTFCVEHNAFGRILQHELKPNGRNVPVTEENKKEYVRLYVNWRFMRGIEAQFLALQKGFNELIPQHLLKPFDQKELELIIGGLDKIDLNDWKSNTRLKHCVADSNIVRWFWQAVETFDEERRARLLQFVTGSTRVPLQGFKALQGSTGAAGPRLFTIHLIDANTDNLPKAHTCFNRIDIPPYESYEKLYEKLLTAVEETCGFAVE
test.summary: HECT E3 ligase autoubiquitinylation TR-FRET assay (Smurf-1)
Format: biochemical
condition.label: 8-point dose-response, 3 nM to 10 uM, 45 min incubation
pIC50: −log10 of the molar value.
measured.metric: pIC50

smi: Cc1c(C(=O)Nc2c(C)n(C)n(C3CCCCC3)c2=O)nnn1-c1ccc(Cl)cc1
measured.number: 5.09
--
smi: COc1ccc(-n2nnc(C(=O)Nc3c(C)n(C)n(C4CCCCC4)c3=O)c2C)c(C(F)(F)F)c1
measured.number: 6.05
--
smi: Cc1c(C(=O)Nc2c(C)n(C)n(-c3ccccc3F)c2=O)nnn1-c1ccc(Cl)cc1C1CC1
measured.number: 5.48
--
smi: Cc1c(C(=O)Nc2c(C)n(C)n(C3CCCCC3)c2=O)nnn1-c1ccc(C2CC2)cc1Cl
measured.number: 7.04
--
smi: Cc1c(C(=O)Nc2c(C)n(C)n(C3CCCCC3)c2=O)nnn1-c1ccc(F)cc1C1CC1
measured.number: 5.35
--
smi: Cc1c(C(=O)Nc2c(C)n(C)n(-c3ccccc3F)c2=O)nnn1-c1ccc(C2CC2)cc1Cl
measured.number: 6.00
--
smi: Cc1c(C(=O)Nc2c(C)n(C)n(C3CCCCC3)c2=O)nnn1-c1ccc(OC(F)(F)F)cc1Cl
measured.number: 6.26
